Source of measurements: paper PMC11633383

- TARGET_OR_SYSTEM: T1, VapC4 toxin (Saci_1813) with a C-terminal histidine tag (Sulfolobus acidocaldarius DSM639, UniProt Q4J7W2 1-140, FITC (Alexa-488) fluorescent probe, site not stated, F/P ratio approximately 0.5 (in the FRET assay only))
- T1 construct: also called Saci VapC4; pAG153; not shown: His tag, C-terminal, kept
- T1 sequence (looked up): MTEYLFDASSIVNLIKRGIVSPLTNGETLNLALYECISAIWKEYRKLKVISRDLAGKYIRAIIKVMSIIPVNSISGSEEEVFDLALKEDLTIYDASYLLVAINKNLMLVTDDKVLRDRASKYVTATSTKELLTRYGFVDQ
- TEST_METHOD_NOTES: FRET or BRET; FITC-labelled VapC4 (100 nM, donor) titrated with TRITC-labelled VapB4 (25-2,000 nM, acceptor); excitation 495 nm, FITC emission at 520 nm, 60°C; fit to a hyperbolic binding equation
- STATED_CONDITIONS: both partners purified
ASSAY_READOUT: Kd (nM)
Respond with the bare value in nM.

[ask] Please give measured Kd of the following entry: VapB4 antitoxin (Saci_1812) with a C-terminal histidine tag (natural protein, Sulfolobus acidocaldarius DSM639, UniProt Q4J7W4 1-77, looked up, TRITC (Alexa-532) fluorescent probe, site not stated, F/P ratio approximately 0.5 (in the FRET assay only), Unlabelled in the RNase neutralisation assay, TRITC-labelled in FRET; also called pAG154; source: E. coli BL21(DE3)-RIL, purified (Ni2+-NTA, dialysis)) MDSSGYVTISAKVPRELKELMDKYGIKPGPVIRKALEEEVRRRAIQELEKELKDLKEKSQISDEDVARLIREDRESR
[reply] 40
